target: Fes (UniProt P07332); test: phosphorylation enrichment, bacterial display (enrichment ratio); higher = better substrate or ligand; peptides without Tyr show the background
Sequence (P07332 whole entry, looked up): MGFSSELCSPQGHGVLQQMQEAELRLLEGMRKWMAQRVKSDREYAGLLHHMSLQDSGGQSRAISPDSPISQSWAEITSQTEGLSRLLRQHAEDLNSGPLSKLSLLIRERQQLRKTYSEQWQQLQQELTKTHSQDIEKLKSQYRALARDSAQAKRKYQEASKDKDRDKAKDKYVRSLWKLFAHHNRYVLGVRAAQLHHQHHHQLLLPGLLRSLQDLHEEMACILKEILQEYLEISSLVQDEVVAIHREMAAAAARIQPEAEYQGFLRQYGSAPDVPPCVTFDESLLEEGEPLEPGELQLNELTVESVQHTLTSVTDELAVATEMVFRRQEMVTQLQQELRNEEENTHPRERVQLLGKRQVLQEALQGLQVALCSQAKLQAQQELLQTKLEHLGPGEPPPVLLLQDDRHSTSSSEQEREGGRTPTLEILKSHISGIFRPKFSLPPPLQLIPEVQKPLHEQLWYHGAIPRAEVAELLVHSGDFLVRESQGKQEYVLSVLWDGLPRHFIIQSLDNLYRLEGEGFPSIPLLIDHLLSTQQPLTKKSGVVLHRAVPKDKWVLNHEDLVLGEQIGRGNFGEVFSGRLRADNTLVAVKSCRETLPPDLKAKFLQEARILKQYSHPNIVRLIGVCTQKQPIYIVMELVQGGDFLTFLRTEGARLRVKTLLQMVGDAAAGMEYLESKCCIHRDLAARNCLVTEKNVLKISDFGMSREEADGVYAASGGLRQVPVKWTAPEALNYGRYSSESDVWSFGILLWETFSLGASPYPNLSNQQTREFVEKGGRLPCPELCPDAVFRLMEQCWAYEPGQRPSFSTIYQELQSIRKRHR
Record form. Attribute: phosphorylation enrichment. Fill in for each entry.
Write the value as a bare number.

[ask] What reported phosphorylation enrichment corresponds to MHDSNSVSKGS [PDGFRA_Y849_Y849S] on Fes (UniProt P07332)?
[reply] 0.523

[ask] What reported phosphorylation enrichment corresponds to IQRSLYDRPAS [PDGFRA_Y762] on Fes (UniProt P07332)?
[reply] 0.643

[ask] What reported phosphorylation enrichment corresponds to PVVKLYATEGR [RP1_Y199_D202E] on Fes (UniProt P07332)?
[reply] 0.807

[ask] What reported phosphorylation enrichment corresponds to FKDVTYLKEEK [UBE3A_Y127_T129K] on Fes (UniProt P07332)?
[reply] 1.28

[ask] What reported phosphorylation enrichment corresponds to IRDLKYTIENP [SND1_Y178] on Fes (UniProt P07332)?
[reply] 1.38

[ask] What reported phosphorylation enrichment corresponds to VDASYYGGRGV [ANTXR2_Y381] on Fes (UniProt P07332)?
[reply] 0.665

---

target: Grb2 SH2 (UniProt P62993); assay: SH2 binding enrichment of the phosphorylated peptide, bacterial display (enrichment ratio); higher = better substrate or ligand; peptides without Tyr show the background
Sequence (P62993 whole entry, looked up): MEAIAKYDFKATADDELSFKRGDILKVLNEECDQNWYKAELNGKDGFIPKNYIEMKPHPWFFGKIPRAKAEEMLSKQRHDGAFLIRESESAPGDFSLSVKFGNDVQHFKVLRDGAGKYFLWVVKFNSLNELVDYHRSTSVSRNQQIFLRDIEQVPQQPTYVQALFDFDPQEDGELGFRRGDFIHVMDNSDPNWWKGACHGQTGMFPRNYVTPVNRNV
Record form. Attribute: SH2 binding enrichment. Fill in for each entry.

[ask] Would you mind telling me what SH2 binding enrichment value was observed for FADIAYNFRRG [PAH_Y166_H170R_YF] ?
[reply] 0.799

[ask] Would you mind telling me what SH2 binding enrichment value was observed for TMETKYDNISR [SETDB2_Y477_V473M] ?
[reply] 1.01

[ask] Would you mind telling me what SH2 binding enrichment value was observed for KDFTIHNPNLL [VANGL1_Y290_Y290H] ?
[reply] 0.812

[ask] Would you mind telling me what SH2 binding enrichment value was observed for RMSQRYGDVLQ [CYP1A2_Y72] ?
[reply] 0.788

[ask] Would you mind telling me what SH2 binding enrichment value was observed for FKDVTYLKEEK [UBE3A_Y127_T129K] ?
[reply] 0.823

[ask] Would you mind telling me what SH2 binding enrichment value was observed for ADVLDYIKALN [HPRT1_Y81_L78V] ?
[reply] 0.76

[ask] Would you mind telling me what SH2 binding enrichment value was observed for EQLQSYQVEII [KRT33A_Y268_A270V] ?
[reply] 0.832

[ask] Would you mind telling me what SH2 binding enrichment value was observed for VGGRIYTDDGL [PKLR_Y218_I219T] ?
[reply] 0.653

[ask] Would you mind telling me what SH2 binding enrichment value was observed for VMTLDYSKTVV [SETD2_Y770_V768L] ?
[reply] 0.845

[ask] Would you mind telling me what SH2 binding enrichment value was observed for NDQANYSLNTD [ADA_Y290] ?
[reply] 0.764

[ask] Would you mind telling me what SH2 binding enrichment value was observed for EQSGSYIWVPA [DLG1_Y895] ?
[reply] 0.925

[ask] Would you mind telling me what SH2 binding enrichment value was observed for EKAEVYRSENE [RIOK2_Y348_G349R] ?
[reply] 0.94

[ask] Would you mind telling me what SH2 binding enrichment value was observed for FADTAYNFRHG [PAH_Y166_I164T_YF] ?
[reply] 0.881

[ask] Would you mind telling me what SH2 binding enrichment value was observed for GKFRMYVAVWT [F13A1_Y161] ?
[reply] 0.997

[ask] Would you mind telling me what SH2 binding enrichment value was observed for SRASYYRKGGC [ALK_Y1283_Y1278S] ?
[reply] 0.644

[ask] Would you mind telling me what SH2 binding enrichment value was observed for KWRGQYDVAIK [BTK_Y425] ?
[reply] 1.34

[ask] Would you mind telling me what SH2 binding enrichment value was observed for WLFFRYLPIGC [ATP2A2_Y836_A838P] ?
[reply] 1.26

[ask] Would you mind telling me what SH2 binding enrichment value was observed for RQSTLYSFFPK [MSH6_Y8] ?
[reply] 1.47

[ask] Would you mind telling me what SH2 binding enrichment value was observed for QAEEWYFGKMG [YES1_Y159] ?
[reply] 0.942

[ask] Would you mind telling me what SH2 binding enrichment value was observed for LIDSSYLTPTA [GREB1L_Y1063_R1066P] ?
[reply] 1.2

[ask] Would you mind telling me what SH2 binding enrichment value was observed for IQRSLYDRPAS [PDGFRA_Y762] ?
[reply] 0.83

[ask] Would you mind telling me what SH2 binding enrichment value was observed for LADKPYTFEDY [FXN_Y118] ?
[reply] 0.758

[ask] Would you mind telling me what SH2 binding enrichment value was observed for TEAEPYFRSLR [NPHS1_Y1138_YF] ?
[reply] 0.938

[ask] Would you mind telling me what SH2 binding enrichment value was observed for DENWFYTRAAF [RPS19_Y54_S59F] ?
[reply] 0.73

[ask] Would you mind telling me what SH2 binding enrichment value was observed for KTKLGYSPLHQ [ANK1_Y735] ?
[reply] 1.2

[ask] Would you mind telling me what SH2 binding enrichment value was observed for ALETLYKKAVK [CC2D2A_Y381_E376A] ?
[reply] 0.889

[ask] Would you mind telling me what SH2 binding enrichment value was observed for RMLREYQELMS [KRT74_Y425] ?
[reply] 1.13

[ask] Would you mind telling me what SH2 binding enrichment value was observed for QITQVYGFFHE [PPP2CA_Y127_D131H_YF] ?
[reply] 1.03
